Structures can show the parent of a compound that is named as a salt.
OBSERVABLE: melting point

Check out these entries, answers already filled in.
{"columns": ["COMPOUND", "melting point"],
 "data": [
  ["COc1ccc(CCOc2cncc(N3CCNCC3)n2)cc1 (as salt: maleate) [Example 69]", "149 to 151 °C"],
  ["c1ccc2c(c1)OCCC2Oc1cncc(N2CCNCC2)n1 (stereo not shown) (as salt: maleate) [Example 26]", "179.5 to 182 °C"],
  ["Fc1cc(F)cc(COc2cncc(N3CCNCC3)n2)c1 (as salt: acetate) [Example 6]", "70 to 72 °C"],
  ["COc1ccccc1COc1cncc(N2CCNCC2)n1 (as salt: hydrochloride) [Example 5]", "171 to 173 °C"],
  ["c1cncc(CCOc2cncc(N3CCNCC3)n2)c1 (as salt: acetate) [Example 12]", "90 to 91 °C"]
]}

input: State its melting point: c1ccc2c(c1)CCCC2Oc1cncc(N2CCNCC2)n1 (stereo not shown) (as salt: acetate) [Example 9]
output: 160 to 162 °C

input: State its melting point: COc1cccc(CCOc2cncc(OC3CCNCC3)n2)c1 [Example 45]
output: 86 to 87 °C

input: State its melting point: c1cncc(COc2cncc(N3CCNCC3)n2)c1 (as salt: acetate) [Example 11]
output: 98 to 99 °C

input: State its melting point: c1ccc2c(c1)ccn2CCOc1cncc(N2CCNCC2)n1 (as salt: maleate) [Example 28]
output: 160.5 to 163 °C

input: State its melting point: COc1cc(COc2cncc(N3CCNCC3)n2)cc(OC)c1 (as salt: maleate) [Example 68]
output: 134 to 137 °C

input: State its melting point: c1ccc(COc2cncc(N3CCNCC3)n2)cc1 (as salt: maleate) [Example 20, 2-(Benzyloxy)-6-(1-piperazinyl)pyrazine]
output: 155 to 156 °C

input: State its melting point: Fc1ccc(COc2cncc(N3CCNCC3)n2)cc1 [Example 42]
output: 183 °C
